// pKi lookup, one value per entry
# Target Entity: Glutamate NMDA receptor
# Assay Protocol: Binding affinity for N-methyl-D-aspartate glutamate receptor was measured through displacement of [3H]25-6981
API: returns pKi as number; meaning -log10 of concentration in mol/L.

Worked set:
[[record]]
entry_smiles = "CCCCCNC1=NCCN1OCc1ccc(F)cc1"
experimental_readout = "pKi"
recorded_value = 7.00

[[record]]
entry_smiles = "c1ccc(CON2CCN=C2NCc2cccnc2)cc1"
experimental_readout = "pKi"
recorded_value = 6.42


Entry `CCCCCNC1=NCCN1OCc1ccc([N+](=O)[O-])cc1` ; pKi = 5.96

Per the records, this molecule ( `CCCCCNC1=NCCN1OCc1ccc(-c2ccccc2)cc1` ) has pKi equal to 5.96
